# tgt: Cellular tumor antigen p53 (Homo sapiens)
# measurement protocol: Primary qHTS for small molecule compounds that upregulate eGFP-tagged delta133p53alpha (in N-terminal) cells. (AID 2060322);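 note: cells pre-induced with doxycycline then dosed without doxycycline; 0% = DMSO vehicle and 100% = reference activator; nearly all actives have a fitted effect of over 75% in size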
# particulars: NCI-H358 eGFP-delta133p53alpha fluorescence, 24 h; hits give high values
Records with an inconclusive call do not appear.
quantity name: activation (%)
Number only, in %; omit the unit.

Please review the following examples before continuing.
C=CCSCC1Nc2cc(Cl)c(S(N)(=O)=O)cc2S(=O)(=O)N1 (stereo not given) ... -36.8
Cc1cccc(-c2[nH]c(CNc3ccccc3F)nc2-c2ccc3ncnn3c2)n1 ... -27.7
Cc1cccc(C2CN(C)CCc3c2cc(O)c(O)c3Cl)c1 (stereo not given) ... -49.3

Form field: reported activation of C/C(=C\CCC(C)C1CC(O)C2(C)C3CCC4C(C)(C)C(OC5OCC(O)C(O)C5O)CCC45CC35CC(O)C12C)C(=O)O (stereo not given)
17.6

Form field: reported activation of Clc1ccc(N2CCN(Cc3cc4ccccn4n3)CC2)cc1
-21.6

Form field: reported activation of [Li+]
-7.03

###

# measurement protocol: qHTS for Inhibitors of the Aldehyde Dehydrogenase Family (ALDH1A2, ALDH1A3, ALDH2, ALDH3A1) (AID 2061307); note: nearly all actives have a fitted effect of over 50% in size
# particulars: ALDH inhibition qHTS; series mostly up to 50.3 µM
Records with an inconclusive call do not appear. Activity calls are given as the source filed them. Calls come from the whole dose curve; as a rule, active = well fitted inhibition curve with a large enough effect; inconclusive = small, poorly fitted or top-dose-only effect; inactive = no such curve, though single readings can be large or run the other way.
Form entry, call: pick from active, inactive

Answered cases to consult:
Cc1cc(N2CCOCC2)cc2[nH]c(-c3c(NC[C@@H](O)c4cccc(Cl)c4)cc[nH]c3=O)nc12 ... inactive
COc1cc(C[C@H]2C(=O)OC[C@@H]2Cc2ccc(OC)c(OC)c2)ccc1O ... active
CCN(Cc1cc(Nc2nc(C)cn3c(-c4cn[nH]c4)cnc23)sn1)C(C)(C)CO ... inactive

Short answer needed: outcome of this test for N#Cc1c(-c2ccc3c(c2)OCO3)no[n+]1[O-] ?
active

Short answer needed: outcome of this test for c1ccc(C(NCCNC(c2ccccc2)c2ccccc2)c2ccccc2)cc1 ?
inactive

Short answer needed: outcome of this test for CC(C)(C)OC(=O)N1CCN(c2ccc(NCc3cnc(-c4ccc(C#N)cc4)o3)cc2)CC1 ?
active

Short answer needed: outcome of this test for Cc1noc(C)c1-c1cccc(-c2nn3c(=O)cc(N4CCNCC4)nc3s2)c1 ?
active

Short answer needed: outcome of this test for COc1ccc(C[C@H](N)C(=O)N[C@H]2[C@@H](O)[C@H](n3cnc4c(N(C)C)ncnc43)O[C@@H]2CO)cc1 ?
inactive

Short answer needed: outcome of this test for COc1ccc(O)c(C2Nc3ccccc3C(=O)N2Cc2ccccc2)c1 (centres undefined) ?
active

###

# measurement protocol: BET inhibitor-based combinations targeting novel dependencies in MECOM-rearranged (r) AML: AML-194 cell line (AID 2202237; note: nearly all actives have a fitted effect of over 40% in size)
# particulars: AML-194 (MECOM-r AML) viability, CellTiter-Glo, 48 h; series mostly up to 46 µM
Results filed as inconclusive are left out. Active and inactive are the calls of the source. Calls come from the whole dose curve; as a rule, active = well fitted inhibition curve with a large enough effect; inconclusive = small, poorly fitted or top-dose-only effect; inactive = flat fitted curve, though single readings scatter.
Form entry, call: pick from active, inactive

Answered cases to consult:
CC(=O)[C@H]1CC[C@H]2[C@@H]3CC=C4C[C@@H](O)CC[C@]4(C)[C@H]3CC[C@]12C ... inactive
Cc1ncc([N+](=O)[O-])n1CC(C)O (stereo not given) ... inactive
COc1ccc(Cn2ccc3ccc(C(=O)NO)cc32)cc1 ... active
O=C(O)CCn1c2c(c3ccccc31)C[C@H](NS(=O)(=O)c1ccc(F)cc1)CC2 ... inactive

Short answer needed: outcome of this test for CN(CCOc1ccc(NS(C)(=O)=O)cc1)CCc1ccc(NS(C)(=O)=O)cc1 ?
inactive
